Hey, just so you know, these numbers are from patent US20230135093A1.

- target.under.test: h-GABA-A α5β3γ2 (Homo sapiens, UniProt P18507+P31644)
- Construct: expressed in transfected cells; host or cells: Xenopus laevis oocytes, micro-injected with subunit RNA
- protocol: [3H]flumazenil competition binding assay on membranes of HEK293 cells expressing GABAA receptors
- test.settings: Table 1; displacement of [3H]-Flumazenil (0.5 nM), HEK293 cells expressing human receptors, means of two determinations
pKi: −log10 of the molar value.
Param threshold (8) applies to pKi; output true when value >= threshold, false when value < threshold.

>  <smiles.data>
COc1cc(-c2cnn(Cc3c(-c4ccc(C)nc4)nnn3C)c(=O)c2)ccn1

>  <class.name>
false

$$$$
>  <smiles.data>
CCn1nnc(-c2ccc(Cl)cc2F)c1Cn1ncc(N2CC3(CC[C@@H](C)CO3)C2)cc1=O

>  <class.name>
false

$$$$
>  <smiles.data>
Cn1nnc(-c2ccc(Cl)cc2F)c1Cn1ncc(N2CC(OCC(F)(F)F)C2)cc1=O

>  <class.name>
true

$$$$
>  <smiles.data>
Cc1ccc(-c2nnn(C)c2Cn2ncc(N3C[C@@H](C)O[C@@H](C)C3)cc2=O)cn1

>  <class.name>
true

$$$$
>  <smiles.data>
CCn1nnc(-c2ccc(Cl)cc2F)c1Cn1ncc(-c2cccc(C#N)n2)cc1=O

>  <class.name>
false

$$$$

Now turn to the next compound.
Check this compound for pKi at or above 8: `Cc1ccc(-c2nnn(C)c2Cn2ncc(N3CCOC(C)(C)C3)cc2=O)cn1`
true

---

Measured Ki accompanies every entry in the list below.
- target.under.test: h-GABA-A α5β3γ2 (Homo sapiens, UniProt P18507+P31644)
- Construct: expressed in transfected cells; host or cells: Xenopus laevis oocytes, micro-injected with subunit RNA
- protocol: [3H]flumazenil competition binding assay on membranes of HEK293 cells expressing GABAA receptors
- test.settings: Table 1; displacement of [3H]-Flumazenil (0.5 nM), HEK293 cells expressing human receptors, means of two determinations
A number alone suffices; assume nM.

>  <smiles.data>
Cc1nnn(-c2ccc(Cl)cc2F)c1Cn1ncc(N2Cc3ccccc3C2)cc1=O

>  <unit.text>
nM

>  <Ki>
52.6

$$$$

Indicate its recorded Ki; the compound in question is `Cc1ccc(-c2nnn(C)c2Cn2ncc(N3CCCC3)cc2=O)cn1`
20.9

Indicate its recorded Ki; the compound in question is `Cn1nnc(-c2ccc(Cl)cc2F)c1Cn1ncc(N2CC(Oc3ccc(Cl)nc3)C2)cc1=O`
4.1

Indicate its recorded Ki; the compound in question is `CC(C)OC1CN(c2cnn(Cc3c(-c4ccc(C(F)(F)F)cc4F)nnn3C)c(=O)c2)C1`
25

---

- target.under.test: h-GABA-A α5β3γ2 (Homo sapiens, UniProt P18507+P31644)
- Construct: expressed in transfected cells; host or cells: Xenopus laevis oocytes, micro-injected with subunit RNA
- protocol: Two-electrode voltage clamp electrophysiology in Xenopus oocytes expressing GABAA receptors (modulation of GABA EC20 current)
- Format: cell-based
- test.settings: Table 1; % modulation of GABA EC20 = 100*(Fold increase-1)
Rule: Efficacy (GABA) % below 50% gives label 1. Equal to or above 50% gives label 0.

Below are worked cases with known answers.
>  <smiles.data>
COc1ncc(-c2cnn(Cc3c(-c4ccc(C)nn4)nnn3C)c(=O)c2)cc1Cl

>  <class.name>
label 0

$$$$
>  <smiles.data>
Cn1nnc(-c2ccc(Cl)cc2F)c1Cn1ncc(N2CC(OC(C)(C)C)C2)cc1=O

>  <class.name>
label 0

$$$$

Hi there! Is Efficacy (GABA) % for `Cn1nnc(-c2ccc(Cl)cc2F)c1Cn1ncc(-c2cnn(CC(F)F)c2)cc1=O` below 50%, do you know?
label 0

Hi there! Is Efficacy (GABA) % for `COc1ncc(-c2cnn(Cc3c(-c4ccc(C(F)(F)F)nn4)nnn3C)c(=O)c2)cc1Cl` below 50%, do you know?
label 0

Hi there! Is Efficacy (GABA) % for `COc1ncccc1N1CCN(c2cnn(Cc3c(C)nnn3-c3ccc(Cl)cc3F)c(=O)c2)CC1` below 50%, do you know?
label 0

Hi there! Is Efficacy (GABA) % for `CN(C)c1cnn(Cc2c(-c3ccc(Cl)cc3F)nnn2C)c(=O)c1` below 50%, do you know?
label 1

Hi there! Is Efficacy (GABA) % for `Cc1nnn(-c2ccc(Cl)cc2)c1Cn1ncc(N(C)C)cc1=O` below 50%, do you know?
label 1

Hi there! Is Efficacy (GABA) % for `Cn1nnc(-c2ccc(Cl)cc2F)c1Cn1ncc(N2CC3(CC[C@H](F)CO3)C2)cc1=O` below 50%, do you know?
label 0

---

- target.under.test: h-GABA-A α5β3γ2 (Homo sapiens, UniProt P18507+P31644)
- Construct: expressed in transfected cells; host or cells: Xenopus laevis oocytes, micro-injected with subunit RNA
- protocol: Two-electrode voltage clamp electrophysiology in Xenopus oocytes expressing GABAA receptors (modulation of GABA EC20 current)
- Format: cell-based
- test.settings: Table 1; Xenopus oocytes, GABA EC20, test compound at approximatively 30 fold its Ki
outcome.measure: Fold increase h-GABA-A α5β3γ2 oocyte

Sample answers from the record:
>  <smiles.data>
Cn1nnc(-c2ccc(Cl)cc2F)c1Cn1ncc(N2CC(OC(C)(C)C)C2)cc1=O

>  <outcome.measure>
Fold increase h-GABA-A α5β3γ2 oocyte

>  <measured>
1.54

$$$$
>  <smiles.data>
Cc1nnn(-c2ccc(Cl)cc2F)c1Cn1ncc(-c2cnn(C3CC3)c2)cc1=O

>  <outcome.measure>
Fold increase h-GABA-A α5β3γ2 oocyte

>  <measured>
1.42

$$$$
>  <smiles.data>
Cn1nnc(-c2ccc(Cl)cc2F)c1Cn1ncc(N2CCN(C3CC3)CC2)cc1=O

>  <outcome.measure>
Fold increase h-GABA-A α5β3γ2 oocyte

>  <measured>
1.75

$$$$
>  <smiles.data>
CC(C)OC1CN(c2cnn(Cc3c(-c4ccc(Cl)cc4F)nnn3C)c(=O)c2)C1

>  <outcome.measure>
Fold increase h-GABA-A α5β3γ2 oocyte

>  <measured>
1.52

$$$$
>  <smiles.data>
Cc1nnn(-c2ccc(Cl)cc2F)c1Cn1ncc(N2CCC(n3ccnc3C)CC2)cc1=O

>  <outcome.measure>
Fold increase h-GABA-A α5β3γ2 oocyte

>  <measured>
1.78

$$$$
>  <smiles.data>
C[C@@H]1CN(c2cnn(Cc3c(-c4ccc(F)cc4F)nnn3C)c(=O)c2)C[C@H](C)O1

>  <outcome.measure>
Fold increase h-GABA-A α5β3γ2 oocyte

>  <measured>
2.38

$$$$
>  <smiles.data>
Cn1nnc(-c2ncc(C(F)(F)F)cn2)c1Cn1ncc(N2CC(OCC(F)(F)F)C2)cc1=O

>  <outcome.measure>
Fold increase h-GABA-A α5β3γ2 oocyte

>  <measured>
1.78

$$$$
>  <smiles.data>
CCn1nnc(-c2ccc(Cl)cc2F)c1Cn1ncc(N2CC3(CC[C@@H](F)CO3)C2)cc1=O

>  <outcome.measure>
Fold increase h-GABA-A α5β3γ2 oocyte

>  <measured>
1.69

$$$$

Indicate its recorded Fold increase h-GABA-A α5β3γ2 oocyte; the compound in question is `Cc1nnn(-c2ccc(Cl)cc2)c1Cn1ncc(N2CCNCC2)cc1=O`
1.72

Indicate its recorded Fold increase h-GABA-A α5β3γ2 oocyte; the compound in question is `C[C@@H]1CN(c2cnn(Cc3c(-c4ccc(Cl)cc4F)nnn3C)c(=O)c2)CCO1`
1.86

---

- target.under.test: h-GABA-A α5β3γ2 (Homo sapiens, UniProt P18507+P31644)
- Construct: expressed in transfected cells; host or cells: Xenopus laevis oocytes, micro-injected with subunit RNA
- protocol: [3H]flumazenil competition binding assay on membranes of HEK293 cells expressing GABAA receptors
- test.settings: Table 1; displacement of [3H]-Flumazenil (0.5 nM), HEK293 cells expressing human receptors, means of two determinations
Measured pKi accompanies every entry in the list below.
Remember the convention: pKi equals -log10 of concentration in molar.

Sample answers from the record:
>  <smiles.data>
Cn1nnc(-c2ccc(Cl)cc2F)c1Cn1ncc(-c2cnn(C3CC3)c2)cc1=O

>  <pKi>
7.96

$$$$
>  <smiles.data>
CC(C)N1CCN(c2cnn(Cc3c(-c4ccc(C(F)(F)F)cc4F)nnn3C)c(=O)c2)C[C@@H]1C

>  <pKi>
7.98

$$$$
>  <smiles.data>
Cn1nnc(-c2ccc(C(F)(F)F)cc2F)c1Cn1ncc(N2CC3(CCCO3)C2)cc1=O

>  <pKi>
7.64

$$$$

Name the value of pKi reported for `Cn1nnc(-c2ncc(C(F)(F)F)cn2)c1Cn1ncc(N2CC(OCC(F)(F)F)C2)cc1=O` when tested on h-GABA-A α5β3γ2 (Homo sapiens, UniProt P18507+P31644).
7.57

Name the value of pKi reported for `CCn1nnc(-c2ccc(Cl)cc2F)c1Cn1ncc(N2CC(OC(C)C)C2)cc1=O` when tested on h-GABA-A α5β3γ2 (Homo sapiens, UniProt P18507+P31644).
7.71

Name the value of pKi reported for `CCn1nnc(-c2ccc(Cl)cc2F)c1Cn1ncc(-c2cnn(C3CC3)c2)cc1=O` when tested on h-GABA-A α5β3γ2 (Homo sapiens, UniProt P18507+P31644).
7.76

Name the value of pKi reported for `Cc1nnn(-c2ccc(Cl)cc2F)c1Cn1ncc(N2CCO[C@H](C)C2)cc1=O` when tested on h-GABA-A α5β3γ2 (Homo sapiens, UniProt P18507+P31644).
7.91

Name the value of pKi reported for `Cn1nnc(-c2ccc(Cl)cc2F)c1Cn1ncc(N2CCN(C(=O)C3CC3)CC2)cc1=O` when tested on h-GABA-A α5β3γ2 (Homo sapiens, UniProt P18507+P31644).
8.06
